targetDesc: PHGDH mutant T59A (Homo sapiens, UniProt O43175, T60A)
Sequence (O43175 whole entry T60A): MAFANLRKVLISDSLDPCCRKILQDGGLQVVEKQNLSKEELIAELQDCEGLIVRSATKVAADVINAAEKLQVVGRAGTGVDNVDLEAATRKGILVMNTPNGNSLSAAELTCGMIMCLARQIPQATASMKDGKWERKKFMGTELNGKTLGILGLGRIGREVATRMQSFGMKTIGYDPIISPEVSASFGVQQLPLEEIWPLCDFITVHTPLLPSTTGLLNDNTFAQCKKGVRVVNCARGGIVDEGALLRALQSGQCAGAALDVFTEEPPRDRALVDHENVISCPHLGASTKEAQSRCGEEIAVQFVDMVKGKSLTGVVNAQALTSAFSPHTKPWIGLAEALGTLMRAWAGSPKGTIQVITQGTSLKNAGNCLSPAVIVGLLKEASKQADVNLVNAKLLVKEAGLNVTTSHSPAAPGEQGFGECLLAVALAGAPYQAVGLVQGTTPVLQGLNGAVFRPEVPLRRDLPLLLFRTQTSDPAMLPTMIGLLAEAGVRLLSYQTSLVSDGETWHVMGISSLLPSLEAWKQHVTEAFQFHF
assayRemarks: PHGDH enzyme assay, mutant T59A
setupConditions: read-out: IC50, PHGDH enzyme inhibition
metric: pIC50
Field pIC50 (float): negative decimal logarithm of the concentration in molar.

[in] Entry CCNC(=S)N/N=C/c1ccc(-c2ccc(C(=O)O)c(Cl)c2)o1 [PKUMDL-WQ-2201] has what pIC50?
[out] 4.16

----------
Test system: panel of cancer cell lines along with one immortalized human breast epithelial cell line
assayRemarks: MTT cell viability assay, cell line panel
Format: cell-based
setupConditions: read-out: EC50 in PHGDH amplified breast cancer cells; serine-replete media
pEC50: −log10 of the molar value.
metric: pEC50

[in] State the recorded pEC50 for this entry: CCNC(=S)N/N=C/c1ccc(-c2ccc(C(=O)O)c(Cl)c2)o1 [PKUMDL-WQ-2201]
[out] > 5.00

----------
targetDesc: PHGDH (Homo sapiens)
Sequence (O43175 whole entry): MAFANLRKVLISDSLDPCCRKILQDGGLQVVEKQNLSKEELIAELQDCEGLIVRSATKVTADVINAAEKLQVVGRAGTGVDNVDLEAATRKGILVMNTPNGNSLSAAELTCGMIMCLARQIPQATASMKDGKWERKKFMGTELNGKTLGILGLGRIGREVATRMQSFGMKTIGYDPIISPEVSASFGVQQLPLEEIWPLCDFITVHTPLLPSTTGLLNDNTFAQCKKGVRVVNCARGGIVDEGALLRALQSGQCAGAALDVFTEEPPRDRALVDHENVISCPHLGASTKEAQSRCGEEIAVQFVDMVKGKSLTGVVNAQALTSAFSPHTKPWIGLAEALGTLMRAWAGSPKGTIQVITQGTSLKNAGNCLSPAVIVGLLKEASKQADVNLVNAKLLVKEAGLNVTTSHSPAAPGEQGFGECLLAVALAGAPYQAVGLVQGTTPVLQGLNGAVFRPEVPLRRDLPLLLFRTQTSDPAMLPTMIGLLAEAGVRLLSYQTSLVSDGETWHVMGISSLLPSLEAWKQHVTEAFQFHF
metric: pIC50
FYI, pIC50 means -log10 of a concentration in mol per litre.

[in] # query: pIC50 of entry CCNC(=S)N/N=C/c1ccc(-c2ccc(C(=O)O)c(Cl)c2)o1 [PKUMDL-WQ-2201]
[out] 4.45

----------
targetDesc: PHGDH mutant T56AK57A (Homo sapiens, UniProt O43175, K58A/T57A)
Sequence (O43175 whole entry T57A/K58A): as the sequence (O43175 whole entry) above, with T57A, K58A counted along it
assayRemarks: PHGDH enzyme assay, mutant T56AK57A
setupConditions: read-out: IC50, PHGDH enzyme inhibition
pIC50: −log10 of the molar value.
metric: pIC50

[in] Would you mind telling me what pIC50 value was observed for CCNC(=S)N/N=C/c1ccc(-c2ccc(C(=O)O)c(Cl)c2)o1 [PKUMDL-WQ-2201] ?
[out] < 3.52
